Target: sEGFR-MMB (human)
Sequence (chain, as listed by the source limits assumed): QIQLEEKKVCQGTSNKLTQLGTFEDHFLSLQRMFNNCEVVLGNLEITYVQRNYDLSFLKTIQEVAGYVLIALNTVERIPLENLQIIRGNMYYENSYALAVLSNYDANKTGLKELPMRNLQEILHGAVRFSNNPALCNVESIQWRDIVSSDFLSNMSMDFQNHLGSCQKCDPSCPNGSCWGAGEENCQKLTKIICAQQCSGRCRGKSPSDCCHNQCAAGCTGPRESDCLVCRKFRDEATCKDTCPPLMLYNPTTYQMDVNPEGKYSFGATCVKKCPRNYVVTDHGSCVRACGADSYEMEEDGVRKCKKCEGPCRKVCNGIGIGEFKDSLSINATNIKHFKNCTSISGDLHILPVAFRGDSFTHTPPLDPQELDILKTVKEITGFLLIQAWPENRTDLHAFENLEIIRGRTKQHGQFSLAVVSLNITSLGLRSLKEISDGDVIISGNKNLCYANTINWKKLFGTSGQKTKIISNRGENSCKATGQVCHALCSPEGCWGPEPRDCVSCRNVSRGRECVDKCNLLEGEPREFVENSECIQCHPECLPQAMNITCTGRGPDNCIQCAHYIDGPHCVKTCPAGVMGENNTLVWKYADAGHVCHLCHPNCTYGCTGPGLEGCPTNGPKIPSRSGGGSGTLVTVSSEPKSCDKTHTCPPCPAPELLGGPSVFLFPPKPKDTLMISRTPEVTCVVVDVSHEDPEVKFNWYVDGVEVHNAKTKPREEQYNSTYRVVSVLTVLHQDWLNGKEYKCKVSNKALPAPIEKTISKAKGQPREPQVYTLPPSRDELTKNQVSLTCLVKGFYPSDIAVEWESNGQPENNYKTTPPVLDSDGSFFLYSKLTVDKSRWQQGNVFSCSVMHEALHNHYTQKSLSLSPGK
Test: phage ELISA on coated sEGFR-MMB, chemiluminescence (background typically <200 units)
Readout Kind: ELISA

Before answering, review these 2 worked examples.
- KHCILFEKTVYCAK [S18 library phage peptide of SEQ ID NO: 26]: 9110 units
- AKCIAFGNSVYCLN [S18 library phage peptide of SEQ ID NO: 24]: 31500 units

**Q:** State the recorded ELISA for this entry: YDCVSFGAVAYCPQ [S18 library phage peptide of SEQ ID NO: 34]
**A:** 3200 units

**Q:** State the recorded ELISA for this entry: TDCVIFGLETYCLR [P173]
**A:** 37900 units
